Origin of the recorded values: ChEMBL document CHEMBL4196078

// EC50 lookup, one value per entry
# System: Human immunodeficiency virus 1
# Procedure Text: Antiviral activity against HIV1 Lai infected in human MOLT4 cells after 7 days by WST8 assay
# Format: functional, organism-based
# Assay Conditions: Human immunodeficiency virus 1, M:B_Lai, MOLT-4, 168 h
Lab book: enter the figure in nM, no units written.

# annotated cases, reported EC50 shown
>  <Substance Smiles>
Cc1cccc(C)c1OCC(=O)N[C@@H](Cc1ccccc1)[C@H](O)C(=O)N1CSC(C)(C)[C@H]1C(=O)NC(C)(C)C

>  <System Under Test>
Human immunodeficiency virus 1

>  <EC50 / nM>
92

$$$$
>  <Substance Smiles>
Cc1cccc(C)c1OCC(=O)N[C@@H](Cc1ccccc1)[C@H](OC(=O)CCCC(=O)NCC(=O)OC[C@H]1O[C@@H](n2cc(C)c(=O)[nH]c2=O)C[C@@H]1N=[N+]=[N-])C(=O)N1CSC(C)(C)[C@H]1C(=O)NC(C)(C)C

>  <System Under Test>
Human immunodeficiency virus 1

>  <EC50 / nM>
0.1

$$$$

IN: Tell us which EC50 value is on record for Cc1cn([C@H]2C[C@H](N=[N+]=[N-])[C@@H](CO)O2)c(=O)[nH]c1=O
OUT: 6.2
